Hey, just so you know, these numbers are from the supplement of paper PMC6522484.

# Tested on: DLD1
# Experimental protocol: cell viability (CellTiter-Glo) relative to plate median (fraction of plate median); higher = more viable cells
# Test context: 5 µM; treatment time 24 h; reporter: 7TFP
Readout type: cell viability

Answered examples (3):
> print(dat)
                                   molecule    readout.type  recorded.measurement
1  COc1cc2c(cc1OC)[C@@H]1C(=O)c3ccc(OC)c(CC=C(C)C)c3O[C@@H]1CO2  cell viability                 0.943
2  C[N+]1(C)CCCC(OC(=O)C(O)(c2ccccc2)c2ccccc2)C1 (stereo unspecified)  cell viability                 0.965
3  C[C@@H]1CC[C@H]2[C@@H](C)C(=O)O[C@@H]3O[C@@]4(C)CC[C@@H]1[C@]32OO4  cell viability                  1.04

# evaluate next
State the recorded cell viability for this entry: N#Cc1c(Cl)c(Cl)c(Cl)c(C#N)c1Cl
0.687
